VALUE_KIND: melting point

>>> print(df.to_string())
                                   compound  observed_value
0  C[C@@H]1[C@@H](NS(=O)(=O)CCc2cccc3ccccc23)CN1C(c1ccc(Cl)cc1)c1ccc(Cl)cc1 (stereo in doubt)   123 to 128 °C
1  C[C@@H]1[C@@H](OS(=O)(=O)c2ccc(F)cc2)CN1C(c1ccc(Cl)cc1)c1ccc(Cl)cc1 (relative stereo)   105 to 107 °C
2  C[C@H]1[C@H](N)CN1C(c1ccc(Cl)cc1)c1ccc(Cl)cc1 (stereo in doubt)   134 to 136 °C
3  C[C@@H]1[C@@H](NS(=O)(=O)c2ccc3ccccc3c2)CN1C(c1ccc(Cl)cc1)c1ccc(Cl)cc1 (stereo in doubt)   156 to 160 °C
4  C[C@@H]1[C@@H](N(S(=O)(=O)c2ccc(F)cc2)S(=O)(=O)c2ccc(F)cc2)CN1C(c1ccc(Cl)cc1)c1ccc(Cl)cc1     60 to 64 °C
5  C[C@@H]1[C@@H](NS(=O)(=O)c2c(Cl)nc3sccn23)CN1C(c1ccc(Cl)cc1)c1ccc(Cl)cc1 (relative stereo)   164 to 169 °C
6  CC(=O)c1ccc(S(=O)(=O)N[C@H]2CN(C(c3ccc(Cl)cc3)c3ccc(Cl)cc3)[C@@H]2C)cc1 (stereo in doubt)   177 to 180 °C

----------
Biological target: transfected human CB1 receptor (Homo sapiens)
Construct: purchased Receptor Biology, Inc
Sequence (P21554 whole entry): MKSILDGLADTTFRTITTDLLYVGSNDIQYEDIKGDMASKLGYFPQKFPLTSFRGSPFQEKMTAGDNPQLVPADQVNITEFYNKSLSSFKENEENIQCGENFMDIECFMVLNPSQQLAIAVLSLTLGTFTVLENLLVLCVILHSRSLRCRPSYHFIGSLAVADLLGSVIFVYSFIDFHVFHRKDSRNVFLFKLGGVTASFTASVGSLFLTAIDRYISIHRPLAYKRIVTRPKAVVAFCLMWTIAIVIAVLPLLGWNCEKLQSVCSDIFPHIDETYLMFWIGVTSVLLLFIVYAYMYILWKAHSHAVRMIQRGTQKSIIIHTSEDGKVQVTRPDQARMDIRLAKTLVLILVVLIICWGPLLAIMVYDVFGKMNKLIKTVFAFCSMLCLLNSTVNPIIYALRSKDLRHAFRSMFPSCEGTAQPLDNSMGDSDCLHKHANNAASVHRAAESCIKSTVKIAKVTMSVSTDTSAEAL
Assay: In-vitro determination of affinity to CB1 receptor, radioligand [^3H]-CP55940
Format: binding
Settings: read-out: CB1 Receptor % Inhibition 10^−6 M
Form field: inhibition at 1 µM (one value per entry).
VALUE_KIND: inhibition at 1 µM (%)

>>> df
                                   molecule                           target_of_assay          value_kind  value_unit  observed_value
0  C[C@@H]1[C@@H](NS(=O)(=O)c2ccc(F)cc2)CN1C(c1ccc(Cl)cc1)c1ccc(Cl)cc1  transfected human CB1 receptor (Homo sapiens)  inhibition at 1 µM           %              71
1  C[C@@H]1[C@@H](NS(=O)(=O)c2ccc(S(C)(=O)=O)cc2)CN1C(c1ccc(Cl)cc1)c1ccc(Cl)cc1 (relative stereo)  transfected human CB1 receptor (Homo sapiens)  inhibition at 1 µM           %              82
2  C[C@@H]1[C@@H](NS(=O)(=O)c2cccc3nsnc23)CN1C(c1ccc(Cl)cc1)c1ccc(Cl)cc1 (relative stereo)  transfected human CB1 receptor (Homo sapiens)  inhibition at 1 µM           %              66
3  C[C@@H]1[C@@H](NS(=O)(=O)c2csc3ccccc23)CN1C(c1ccc(Cl)cc1)c1ccc(Cl)cc1 (relative stereo)  transfected human CB1 receptor (Homo sapiens)  inhibition at 1 µM           %              87
4  C[C@H]1[C@H](NS(=O)(=O)c2cccs2)CN1C(c1ccc(Cl)cc1)c1ccc(Cl)cc1  transfected human CB1 receptor (Homo sapiens)  inhibition at 1 µM           %              66
5  C[C@@H]1[C@@H](OS(=O)(=O)c2ccc(F)cc2)CN1C(c1ccc(Cl)cc1)c1ccc(Cl)cc1 (relative stereo)  transfected human CB1 receptor (Homo sapiens)  inhibition at 1 µM           %              60
6  C[C@@H]1[C@@H](NS(=O)(=O)c2cc(Cl)cc(Cl)c2)CN1C(c1ccc(Cl)cc1)c1ccc(Cl)cc1 (relative stereo)  transfected human CB1 receptor (Homo sapiens)  inhibition at 1 µM           %              95
7  C[C@H]1[C@H](NS(=O)(=O)c2ccc(F)cc2)CN1C(c1ccc(Cl)cc1)c1ccc(Cl)cc1  transfected human CB1 receptor (Homo sapiens)  inhibition at 1 µM           %              59

Source listed as patent US20050187208A1.
